Below is a list of entries, each paired with its recorded CC50 value.
- PROCEDURE_TEXT: in vitro
- CONDITION_SET: cattle (Bos taurus)

Some solved entries appear below for comparison.
-- ask Data request, read-out CC50, for "O=C(Nc1ccc(-n2nc3cc(Cl)c(Cl)cc3n2)cc1)c1ccccc1"
-- reply > 100 µM

-- ask Data request, read-out CC50, for "COc1ccc(C(=O)Nc2ccc(-n3nnc4cc(Cl)c(Cl)cc43)cc2)cc1"
-- reply > 100 µM

-- ask Data request, read-out CC50, for "CCCC(=O)N(C(=O)CCC)c1ccc(-n2nnc3cc(Cl)c(Cl)cc32)cc1"
-- reply 14 µM

Kindly consider the entry below.
-- ask Data request, read-out CC50, for O=C(Nc1ccc(-n2nc3cc(Cl)c(Cl)cc3n2)cc1)Nc1cccc2ccccc12 [10k]
-- reply > 100 µM

----------
- System: RSV
- PROCEDURE_TEXT: microbe, parasite or virus in culture
- Assay type: cell-based, Human Respiratory Syncytial Virus (RSV) strain A2
- CONDITION_SET: human respiratory syncytial virus, Vero 76, read-out: EC50 RSV
Below is a list of entries, each paired with its recorded EC50 value.
Give a bare numeral; the unit µM is implied.

Some solved entries appear below for comparison.
-- ask Data request, read-out EC50, for Cc1ccc(C(=O)Nc2ccc(-n3nc4cc(Cl)c(Cl)cc4n3)cc2)cc1 [8b]
-- reply 27

-- ask Data request, read-out EC50, for O=C(Nc1ccc(-n2nnc3cc(Cl)c(Cl)cc32)cc1)c1ccc(C(F)(F)F)cc1 [7g]
-- reply 5

***
-- ask Data request, read-out EC50, for CCC(=O)Nc1ccc(-n2nnc3cc(Cl)c(Cl)cc32)cc1 [5b]
-- reply 4

----------
REPORTED_ENDPOINT: melting point

Some solved entries appear below for comparison.
-- ask Data request, read-out melting point, for "Cc1ccc(C(=O)Nc2ccc(-n3nc4cc(Cl)c(Cl)cc4n3)cc2)cc1"
-- reply 210 to 213 °C

-- ask Data request, read-out melting point, for "O=C(Nc1ccc(-n2nnc3cc(Cl)c(Cl)cc32)cc1)c1ccccc1"
-- reply 250 to 252 °C

-- ask Data request, read-out melting point, for "CCC(=O)N(C(=O)CC)c1ccc(-n2nc3cc(Cl)c(Cl)cc3n2)cc1"
-- reply 238 to 240 °C

-- ask Data request, read-out melting point, for "CCCC(=O)N(C(=O)CCC)c1ccc(-n2nnc3cc(Cl)c(Cl)cc32)cc1"
-- reply 202 to 204 °C

-- ask Data request, read-out melting point, for "COc1ccc(C(=O)Nc2ccc(-n3nnc4cc(Cl)c(Cl)cc43)cc2)cc1"
-- reply 193 to 195 °C

***
-- ask Data request, read-out melting point, for "O=C(Nc1ccc(-n2nc3cc(Cl)c(Cl)cc3n2)cc1)c1ccc(C(F)(F)F)cc1"
-- reply 210 to 212 °C

-- ask Data request, read-out melting point, for "CC(=O)Nc1ccc(-n2nnc3cc(Cl)c(Cl)cc32)cc1"
-- reply 209 to 211 °C

-- ask Data request, read-out melting point, for "CCCC(=O)N(C(=O)CCC)c1ccc(-n2nc3cc(Cl)c(Cl)cc3n2)cc1"
-- reply 130 to 133 °C

-- ask Data request, read-out melting point, for CCNC(=O)Nc1ccc(-n2nc3cc(Cl)c(Cl)cc3n2)cc1 [10a]
-- reply > 290 °C

-- ask Data request, read-out melting point, for O=C(Nc1ccc(-n2nc3cc(Cl)c(Cl)cc3n2)cc1)Nc1cccc2ccccc12 [10k]
-- reply > 290 °C
